Biological target: T1, GFP-9S library array, motif 4 ND N98T;D124T (synthetic construct, N98T;D124T)
T1 chain: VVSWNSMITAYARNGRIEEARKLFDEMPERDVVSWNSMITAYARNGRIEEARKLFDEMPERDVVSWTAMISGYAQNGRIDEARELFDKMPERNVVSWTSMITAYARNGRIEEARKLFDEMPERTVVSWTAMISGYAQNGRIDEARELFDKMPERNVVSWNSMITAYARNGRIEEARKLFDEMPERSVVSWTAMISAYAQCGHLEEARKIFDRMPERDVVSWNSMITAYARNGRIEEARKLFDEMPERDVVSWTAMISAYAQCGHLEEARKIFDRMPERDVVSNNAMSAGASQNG
Assay: high-throughput RNA pulldown from lysate on Ni-NTA beads; HRP: 50 mM Tris pH 8, 150 mM NaCl, 1 mM beta-mercaptoethanol, 50 ug/ml BSA, 3 ug/ml yeast RNA, 0.5% heparin; ITC and FP: Tris pH 8, 200 mM KCl, 5% glycerol; MST: 50 mM Tris pH 8, 200 mM NaCl, 1 mM DTT, BSA, heparin, 0.05% Tween 20
Details: tags: N-terminal His-eGFP; label: 5' IRDye 800CW
REPORTED METRIC: Kd (nM)
Please give a number only; it is taken to be in nM.

{"columns": ["BINDER", "VALUE UNIT", "OBSERVED"],
 "data": [
  ["AUUAAACGUGA (ssRNA) [IR-rpoA-A]", "nM", 18.3]
]}

For the next question, use this binder.
Fill in the blank: the reported Kd of AUUAUACGUGA (ssRNA) [IR-rpoA-U] is ____.
63.1
